Recorded pIC50, one value per entry.
# System: U2OS;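 note: growth inhibition of human U-2-OS cells, determined with a cell viability assay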
# procedure details: cells
# Format: functional, cell-based, Homo sapiens, U-2-OS
# experimental setup: Homo sapiens, U2OS
# Description: SANGER: Inhibition of human U-2-OS cell growth in a cell viability assay.
pIC50: −log10 of the molar value.

- molecule: "C=CCNC1=C2C[C@@H](C)C[C@H](OC)[C@H](O)[C@@H](C)/C=C(\\C)[C@H](OC(N)=O)[C@@H](OC)/C=C\\C=C(/C)C(=O)NC(=CC1=O)C2=O"
  relation symbol: "="
  pIC50: 6.77
- molecule: "CCOc1nc(NC(=O)Cc2cc(OC)ccc2OC)cc(N)c1C#N"
  relation symbol: "<"
  pIC50: 5.00
- molecule: "COc1cc(F)c(F)c(Nc2ccc(I)cc2F)c1NS(=O)(=O)C1(CC(O)CO)CC1 (centres undefined)"
  relation symbol: "="
  pIC50: 5.56
- molecule: "Cc1cnc(-c2cnc(NCCNc3ccc(C#N)cn3)nc2-c2ccc(Cl)cc2Cl)[nH]1"
  relation symbol: "<"
  pIC50: 5.59
